# Measurement target: Epidermal growth factor receptor (Homo sapiens, UniProt P00533)
# Sequence (P00533 whole entry): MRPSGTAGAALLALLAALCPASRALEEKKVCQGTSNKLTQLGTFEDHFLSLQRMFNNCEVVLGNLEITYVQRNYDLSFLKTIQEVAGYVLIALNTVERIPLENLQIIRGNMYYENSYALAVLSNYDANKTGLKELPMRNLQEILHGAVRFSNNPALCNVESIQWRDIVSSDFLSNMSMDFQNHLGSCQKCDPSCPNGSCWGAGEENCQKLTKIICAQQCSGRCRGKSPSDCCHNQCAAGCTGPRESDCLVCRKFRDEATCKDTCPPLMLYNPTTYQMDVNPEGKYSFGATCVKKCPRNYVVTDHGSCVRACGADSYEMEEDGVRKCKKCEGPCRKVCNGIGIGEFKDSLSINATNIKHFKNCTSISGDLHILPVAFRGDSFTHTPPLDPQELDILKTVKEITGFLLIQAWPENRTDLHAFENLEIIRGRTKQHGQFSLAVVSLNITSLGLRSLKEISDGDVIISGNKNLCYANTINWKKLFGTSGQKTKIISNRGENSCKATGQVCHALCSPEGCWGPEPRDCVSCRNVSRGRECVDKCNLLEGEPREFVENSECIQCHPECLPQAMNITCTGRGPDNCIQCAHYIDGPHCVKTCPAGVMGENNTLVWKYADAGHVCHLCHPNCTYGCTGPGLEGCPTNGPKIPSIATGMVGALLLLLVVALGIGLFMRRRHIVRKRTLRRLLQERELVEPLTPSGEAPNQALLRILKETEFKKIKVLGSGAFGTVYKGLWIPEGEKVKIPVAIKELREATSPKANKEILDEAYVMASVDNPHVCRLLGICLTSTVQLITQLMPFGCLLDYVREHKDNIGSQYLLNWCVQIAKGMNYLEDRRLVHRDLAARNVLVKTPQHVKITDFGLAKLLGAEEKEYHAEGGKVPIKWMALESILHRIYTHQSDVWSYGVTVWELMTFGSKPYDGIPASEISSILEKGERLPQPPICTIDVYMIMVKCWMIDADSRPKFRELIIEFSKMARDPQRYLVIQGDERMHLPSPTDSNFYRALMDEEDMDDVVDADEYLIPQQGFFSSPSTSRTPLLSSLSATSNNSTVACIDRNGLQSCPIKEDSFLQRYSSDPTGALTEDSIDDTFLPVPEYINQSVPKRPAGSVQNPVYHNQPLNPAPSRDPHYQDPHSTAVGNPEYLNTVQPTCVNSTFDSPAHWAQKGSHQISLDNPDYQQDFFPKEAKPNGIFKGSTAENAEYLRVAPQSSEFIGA
# Assay text: DRUGMATRIX: Protein Tyrosine Kinase, EGF Receptor enzyme inhibition (substrate: Poly(Glu:Tyr))
# Format: cell-based, Insect cells
# Study conditions: insect cells; Not Active = under 50% inhibition at 10 µM

# Compound, Measurement target, IC50
data = [
    ("CC(=O)[C@@]1(O)CC[C@H]2[C@@H]3CCC4=CC(=O)CC[C@]4(C)[C@H]3CC[C@@]21C [HYDROXYPROGESTERONE]", "Epidermal growth factor receptor (Homo sapiens, UniProt P00533)", "Not Active"),
    ("N=C(N)NC(=O)Cc1c(Cl)cccc1Cl", "Epidermal growth factor receptor (Homo sapiens, UniProt P00533)", "Not Active"),
    ("Nc1ccn([C@@H]2O[C@H](CO)[C@@H](O)[C@@H]2O)c(=O)n1", "Epidermal growth factor receptor (Homo sapiens, UniProt P00533)", "Not Active"),
    ("O=C1C(CC[S+]([O-])c2ccccc2)C(=O)N(c2ccccc2)N1c1ccccc1 (stereo unspecified)", "Epidermal growth factor receptor (Homo sapiens, UniProt P00533)", "Not Active"),
    ("O=C1CN=C(c2ccccc2Cl)c2cc([N+](=O)[O-])ccc2N1", "Epidermal growth factor receptor (Homo sapiens, UniProt P00533)", "Not Active"),
    ("CO[C@@H]1[C@@H](OC)[C@H](C)[C@@](O)(CC(=O)O)O[C@H]1[C@H](C)[C@H]1O[C@@]2(CC[C@@](C)([C@H]3CC[C@@](C)([C@@H]4O[C@@H]([C@H]5O[C@](C)(O)[C@H](C)C[C@@H]5C)C[C@@H]4O[C@@H]4C[C@H](OC)[C@@H](OC)[C@H](C)O4)O3)O2)C[C@H](O)[C@H]1C", "Epidermal growth factor receptor (Homo sapiens, UniProt P00533)", "Not Active"),
]

###

# Measurement target: UniProt:P25103
# Sequence (P25103 whole entry): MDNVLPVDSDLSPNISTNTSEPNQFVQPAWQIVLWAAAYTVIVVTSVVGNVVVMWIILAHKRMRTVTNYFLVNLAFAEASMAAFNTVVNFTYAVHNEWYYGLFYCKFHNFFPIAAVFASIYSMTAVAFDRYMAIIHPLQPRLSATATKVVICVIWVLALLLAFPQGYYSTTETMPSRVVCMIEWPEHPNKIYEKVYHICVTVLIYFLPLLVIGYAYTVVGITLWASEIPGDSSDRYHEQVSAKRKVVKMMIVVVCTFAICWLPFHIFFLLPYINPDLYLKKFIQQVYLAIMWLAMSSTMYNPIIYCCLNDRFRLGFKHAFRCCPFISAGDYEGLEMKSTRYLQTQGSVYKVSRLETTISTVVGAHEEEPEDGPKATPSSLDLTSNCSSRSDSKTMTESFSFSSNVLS
# Format: cell membranes, CHO, Membrane
# Study conditions: cho
Measurement name: IC50

# Compound, Assay value
data = [
    ("C#CC1(O)CC[C@H]2[C@@H]3CCC4=CC(=O)CC[C@@H]4[C@H]3CC[C@@]21CC (stereo partly specified) [NORGESTREL]", "Not Active"),
    ("O=C(c1ccccc1C(F)(F)F)N1CCC(Cc2ccccc2)CC1", "Not Active"),
    ("O=c1cc(N2CCOCC2)oc2c(-c3ccccc3)cccc12 [LY-294002]", "Not Active"),
    ("Fc1ccc(C(c2ccc(F)cc2)N2CCN(C/C=C/c3ccccc3)CC2)cc1 [FLUNARIZINE]", "Not Active"),
    ("CC(=O)[C@@]1(O)CC[C@H]2[C@@H]3CCC4=CC(=O)CC[C@]4(C)[C@H]3CC[C@@]21C [HYDROXYPROGESTERONE]", "Not Active"),
    ("COc1cc(N)c(Cl)cc1C(=O)NC1CCN(CCCOc2ccc(F)cc2)CC1OC (stereo unspecified) [CISAPRIDE]", "Not Active"),
    ("Oc1c(Cl)cc(Cl)c(Cl)c1Cc1c(O)c(Cl)cc(Cl)c1Cl [HEXACHLOROPHENE]", "Not Active"),
    ("CN[C@H]1CC[C@@H](c2ccc(Cl)c(Cl)c2)c2ccccc21 [SERTRALINE]", "Not Active"),
    ("Cc1cc2c(OCC(CNC(C)(C)C)OC(=O)c3ccccc3)cccc2[nH]1 (stereo unspecified) [BOPINDOLOL]", "Not Active"),
    ("CN(C)CCOC(c1ccccc1)c1ccccc1 [DIPHENHYDRAMINE]", "Not Active"),
    ("NC1CCN(c2nc3c(cc2F)c(=O)c(C(=O)O)cn3-c2ccc(F)cc2F)C1 (stereo unspecified) [TOSUFLOXACIN]", "Not Active"),
    ("COC(=O)Nc1nc2ccc(C(=O)c3cccs3)cc2[nH]1 [NOCODAZOLE]", "Not Active"),
    ("COc1ccc(C(=O)N2CCCC2=O)cc1", "Not Active"),
    ("O=C1Nc2ccc(Cl)cc2C(c2ccccc2Cl)=NC1O (stereo unspecified) [LORAZEPAM]", "Not Active"),
    ("CC(C(=O)O)c1cccc(Oc2ccccc2)c1 (stereo unspecified) [FENOPROFEN]", "Not Active"),
    ("Nc1ccn([C@@H]2O[C@H](CO)[C@@H](O)[C@@H]2O)c(=O)n1 [CYTARABINE]", "Not Active"),
    ("CCN(CC)CC(=O)Nc1c(C)cccc1C [LIDOCAINE]", "Not Active"),
    ("O=C1O[C@H]([C@@H](O)CO)C(O)=C1O [ASCORBIC ACID]", "Not Active"),
    ("C[C@H]1O[C@@H](n2cc(F)c(=O)[nH]c2=O)[C@H](O)[C@@H]1O [DOXIFLURIDINE]", "Not Active"),
    ("Clc1ccccc1CN1CCc2sccc2C1 [TICLOPIDINE]", "Not Active"),
    ("NCCCC(O)(P(=O)(O)O)P(=O)(O)O [ALENDRONIC ACID]", "Not Active"),
    ("C#C[C@]1(OC(C)=O)CC[C@H]2[C@@H]3CCC4=C[C@@H](OC(C)=O)CC[C@@H]4[C@H]3CC[C@@]21C [ETHYNODIOL DIACETATE]", "Not Active"),
    ("Nc1cc(N2CCCCC2)nc(N)[n+]1[O-] [MINOXIDIL]", "Not Active"),
    ("CCN1CCC[C@H]1CNC(=O)c1cc(S(N)(=O)=O)ccc1OC [LEVOSULPIRIDE]", "Not Active"),
    ("C[C@H]1C[C@@H]2[C@H]([C@@H](O)C[C@@]3(C)[C@H]2CC[C@]3(O)C(=O)CO)[C@@]2(C)C=CC(=O)C=C12 [METHYLPREDNISOLONE]", "Not Active"),
    ("Cc1c(OCC(F)(F)F)ccnc1C[S+]([O-])c1nc2ccccc2[nH]1 (stereo unspecified) [LANSOPRAZOLE]", "Not Active"),
    ("CC(=O)Oc1ccc(C(c2ccc(OC(C)=O)cc2)c2ccccn2)cc1 [BISACODYL]", "Not Active"),
    ("O=C/C=C/c1ccccc1", "Not Active"),
    ("O=C1C(CC[S+]([O-])c2ccccc2)C(=O)N(c2ccccc2)N1c1ccccc1 (stereo unspecified) [SULFINPYRAZONE]", "Not Active"),
    ("COc1ccc2cc3[n+](cc2c1OC)CCc1cc2c(cc1-3)OCO2.[Cl-] [BERBERINE CHLORIDE]", "Not Active"),
    ("CN/C(=N\\CCSCc1nc[nH]c1C)NC#N [CIMETIDINE]", "Not Active"),
    ("NC(=O)C[S+]([O-])C(c1ccccc1)c1ccccc1 (stereo unspecified) [MODAFINIL]", "Not Active"),
    ("Cc1ccc(NC(=O)c2ccc(CN3CCN(C)CC3)cc2)cc1Nc1nccc(-c2cccnc2)n1 [IMATINIB]", "Not Active"),
    ("C[n+]1ccccc1/C=N/O.[Cl-] [PRALIDOXIME CHLORIDE]", "Not Active"),
    ("CCN(CC)CCOc1ccc(/C(=C(/Cl)c2ccccc2)c2ccccc2)cc1 [ENCLOMIPHENE]", "Not Active"),
    ("CC1(C)S[C@@H]2[C@H](NC(=O)[C@H](N)c3ccccc3)C(=O)N2[C@H]1C(=O)O [AMPICILLIN]", "Not Active"),
]
